B1: TPR 5TU (parent)
chain: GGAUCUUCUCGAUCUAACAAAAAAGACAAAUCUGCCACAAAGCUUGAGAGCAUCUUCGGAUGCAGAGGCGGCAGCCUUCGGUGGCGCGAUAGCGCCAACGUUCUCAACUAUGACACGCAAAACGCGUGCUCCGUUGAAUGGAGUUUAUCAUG

# Variants of: B1
# run-description: polymerase ribozyme fitness, log enrichment relative to wild type (log ratio); higher = more active; in vitro selection for triplet polymerase activity
Variants at the floor of the assay were thinned out.
Let's look at some variants and their measured polymerase ribozyme fitness (log ratio).

| variant-notation | prefix-operator | polymerase ribozyme fitness (log ratio) |
| --- | --- | --- |
| A22G A24U C63G | = | 2.39 |
| C27U A28G U53G A73G C85U G86C A120U C132U | ≤ | -4.2 |
| A16U U33C C38U G140U | ≤ | -4.2 |
| U15G U55G G71C C85U A142U C149U | ≤ | -4.2 |
| U7G G92U | = | -2.39 |
| A26C A64G G83U C85G A115G | ≤ | -4.2 |
| C5G C87A | ≤ | -4.2 |
| G34A U77G C87A A91C C108U G133A | ≤ | -4.2 |
| U9C A22C C96G C99G G128U | ≤ | -4.2 |
| A73U G81U A106G A115G A119U A147C | ≤ | -4.2 |
| U4A A21C | = | 0.483 |
| U55A C76A C114U | = | -3.91 |
| C8U A16C U53A C54A G71C G141C U148C C149U | ≤ | -4.2 |
| C96G C105U C116G A119U C132U | = | -1.57 |
| A16C G94U A107G C116A C132U A142G | ≤ | -4.2 |
| C38G U56A G94A A121G | = | -1.64 |
| U4G A23U A26U C27G C63U U90G C93A C108U C114U C129G G140C | ≤ | -4.2 |
| U45A C99A | ≤ | -4.2 |
| A28C C51U C57A A73U C87G U101G A121U | ≤ | -4.2 |
| G50C C51G A52U C76U G84U C105U C114U G133A | ≤ | -4.2 |
| C35U A73U G88U C108G | ≤ | -4.2 |
| C5G C93U | = | -2.31 |
| C32U U61G | = | -3.73 |
| A16C U101G | = | -0.303 |
| A41C U82C | = | -1.14 |
| G42U U45A C95U C149A | ≤ | -4.2 |
| C57G C85U G117U C118G | = | -1.51 |
| G46U G71C C95U A97U A115C G136U | ≤ | -4.2 |
| A73U C76A U77A G94C U104G A106G C108U | ≤ | -4.2 |
| U53A C99U C116U | = | -1.7 |
| A22G C54U C85U C116G | = | 1.12 |
| U31G A37C G126U | = | -2.65 |
| C18G G80C | ≤ | -4.2 |
| U4G A40C A137G | = | -1.84 |
| A39U G59C G83U | = | -2.72 |
| C32G A52C U61A G62C C63A C75U C93U | = | -4.14 |
| G68C A91C A106U U127A | ≤ | -4.2 |
| C132G | = | -3.15 |
| G11A C51U U55A U56G A142C | = | -3.56 |
| U15G A28G C79A G124U | ≤ | -4.2 |
| U44G U135A | = | -3.83 |
| U13C U53A A91U A107U | ≤ | -4.2 |
| A19U G50U G58C C75U C118G A120G G141A U146A | ≤ | -4.2 |
| A3G C43U A60C G84A U130A | ≤ | -4.2 |
| A30U C54U A73G C95A C116U | = | -4.03 |
| A29G G48A C75U | ≤ | -4.2 |
